Entry source: patent US10730911B2

Target: human glucagon-like peptide-1 receptor (GLP-1R) (Homo sapiens, UniProt P43220)
Construct: host or cells: CHO chAMPion cells
Sequence (P43220 24-463): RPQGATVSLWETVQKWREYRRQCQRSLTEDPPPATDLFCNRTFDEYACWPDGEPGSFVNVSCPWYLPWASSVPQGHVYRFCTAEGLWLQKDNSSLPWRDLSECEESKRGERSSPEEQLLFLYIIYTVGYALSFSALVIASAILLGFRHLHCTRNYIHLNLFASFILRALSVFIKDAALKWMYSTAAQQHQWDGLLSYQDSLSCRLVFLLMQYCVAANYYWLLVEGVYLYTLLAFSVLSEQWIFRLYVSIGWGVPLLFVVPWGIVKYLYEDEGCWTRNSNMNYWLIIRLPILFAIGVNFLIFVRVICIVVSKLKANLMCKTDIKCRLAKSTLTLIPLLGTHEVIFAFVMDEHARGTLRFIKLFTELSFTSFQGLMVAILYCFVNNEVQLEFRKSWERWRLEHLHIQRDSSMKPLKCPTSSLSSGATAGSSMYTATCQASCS
Assay: Human GLP-1 receptor cell-based assay (flash luminescence, Target Activation phase)
Details: CHO chAMPion cells stably co-expressing human GLP-1R, Photina and cAMP-activated calcium channel; agonist activity; normalization by forskolin at 10 μM; ^a) values from single experiment; read-out: EC50 (μM) Target Activation (TA)
Where a SMILES comes first, the peptide text is derived from it. [ ]: non-standard residue; d: D form. The star is where a group is joined. Trp(5-OH) = N[C@@H](Cc1c[nH]c2ccc(O)cc12)C(=O)O; Ac6c = NC1(C(=O)O)CCCCC1; Bn = c1ccc(C*)cc1
Catalogue of EC50 readings, one per entry.
Only the number, expressed in µM, is required.

{"Molecule": "C[C@@H]1NC(=O)[C@H](Cc2ccc(O)cc2)NC(=O)[C@H](CCC(N)=O)NC(=O)[C@H](Cc2ccc(OCc3ccccc3)cc2)NC(=O)[C@H](Cc2ccccc2)NC(=O)C2(CCCCC2)NC(=O)[C@H]2CCCN2C(=O)[C@H](Cc2ccc(O)cc2)NC(=O)[C@H](CCC(=O)O)NC(=O)[C@H](Cc2c[nH]c3ccccc23)NC1=O [compound 5] (cyclo(FY(Bn)QYAWEY[dP][Ac6c]))", "Study System": "human glucagon-like peptide-1 receptor (GLP-1R) (Homo sapiens, UniProt P43220)", "Outcome Measure": "EC50", "Result Value": 0.15}

Exercise: Enter measured EC50, system human glucagon-like peptide-1 receptor (GLP-1R) (Homo sapiens, UniProt P43220), for the molecule shown: C[C@@H]1NC(=O)[C@H](Cc2ccc(O)cc2)NC(=O)[C@H](CCC(N)=O)NC(=O)[C@H](Cc2c[nH]c3ccccc23)NC(=O)[C@H](Cc2ccccc2)NC(=O)C2(CCCCC2)NC(=O)[C@H]2CCCN2C(=O)[C@H](Cc2c[nH]c3ccc(O)cc23)NC(=O)[C@H](CCC(=O)O)NC(=O)[C@H](Cc2c[nH]c3ccccc23)NC1=O [compound 18] (cyclo(FWQYAWE[Trp(5-OH)][dP][Ac6c]))
Solution: 0.82

Exercise: Enter measured EC50, system human glucagon-like peptide-1 receptor (GLP-1R) (Homo sapiens, UniProt P43220), for the molecule shown: CC(C)C[C@@H]1NC(=O)[C@H](CCC(=O)O)NC(=O)[C@H](Cc2ccccc2)NC(=O)C2(CCCCC2)NC(=O)[C@H]2CCCN2C(=O)[C@H](Cc2c[nH]cn2)NC(=O)[C@H](CCC(=O)O)NC(=O)[C@H](Cc2c[nH]c3ccccc23)NC(=O)[C@H](C)NC(=O)[C@H](Cc2ccc(O)cc2)NC1=O [compound 39] (cyclo(FELYAWEH[dP][Ac6c]))
Solution: 1

---

Catalogue of EC50 readings, one per entry.
Molecular target: human glucagon-like peptide-1 receptor (GLP-1R) (Homo sapiens, UniProt P43220)
Construct: host or cells: CHO chAMPion cells
Test: Human GLP-1 receptor cell-based assay (flash luminescence, Target Activation phase)
Conditions: CHO chAMPion cells stably co-expressing human GLP-1R, Photina and cAMP-activated calcium channel; agonist activity; normalization by forskolin at 10 μM; ^a) values from single experiment; read-out: EC50 (μM) Target Activation (TA)
Excerpt: CHO chAMPion cells (Axxam SpA; S. Corazza, Assay Drug Dev. Technol. 2009, 7, 304-307) stably co-expressing the human glucagon-like peptide-1 receptor (GLP-1R), the Ca^2+-sensitive photoprotein PHOTINA® (S. Bovolenta et al., J. Biomol. Screen. 2007, 12, 694-704) and a mutated cAMP-activated calcium ion channel (WO2004/083803 A2) were used to monitor GLP-1R signaling after stimulation with an agonist. […]
Where a SMILES comes first, the peptide text is derived from it. [ ]: non-standard residue; d: D form. Aic = NC1(C(=O)O)Cc2ccccc2C1; Dpg = CCCC(N)(CCC)C(=O)O
Only the number, expressed in µM, is required.

Exercise: Determine its reported EC50: CCCC1(CCC)NC(=O)[C@H]2CCCN2C(=O)[C@H](Cc2ccccc2)NC(=O)[C@H](CCC(=O)O)NC(=O)[C@H](Cc2c[nH]c3ccccc23)NC(=O)[C@H](C)NC(=O)[C@H](CC(C)C)NC(=O)[C@H](CC(C)C)NC(=O)[C@H](CCC(=O)O)NC(=O)[C@H](Cc2ccccc2)NC1=O [compound 26] (cyclo(FELLAWEF[dP][Dpg]))
Solution: 1

Exercise: Determine its reported EC50: CC(C)C[C@@H]1NC(=O)[C@H](CCC(=O)O)NC(=O)[C@H](Cc2ccccc2)NC(=O)C2(Cc3ccccc3C2)NC(=O)[C@H]2CCCN2C(=O)[C@H](Cc2ccc(O)cc2)NC(=O)[C@H](CCC(=O)O)NC(=O)[C@H](Cc2c[nH]c3ccccc23)NC(=O)[C@H](C)NC(=O)[C@H](Cc2ccc(O)cc2)NC1=O [compound 13] (cyclo(FELYAWEY[dP][Aic]))
Solution: 0.66

---

Target: human glucagon-like peptide-1 receptor (GLP-1R) (Homo sapiens)
Construct: host or cells: CHO chAMPion cells
Assay: Human GLP-1 receptor cell-based assay (flash luminescence, Target Activation phase)
Details: CHO chAMPion cells stably co-expressing human GLP-1R, Photina and cAMP-activated calcium channel; agonist activity; normalization by forskolin at 10 μM; ^a) values from single experiment; read-out: EC50 (μM) Target Activation (TA)
Where a SMILES comes first, the peptide text is derived from it. [ ]: non-standard residue; d: D form. Trp(5-OH) = N[C@@H](Cc1c[nH]c2ccc(O)cc12)C(=O)O; Ac6c = NC1(C(=O)O)CCCCC1
Catalogue of EC50 readings, one per entry.
Only the number, expressed in µM, is required.

{"Compound": "CC(C)C[C@@H]1NC(=O)[C@H](CCC(=O)O)NC(=O)[C@H](Cc2ccccc2)NC(=O)C2(CCCCC2)NC(=O)[C@H]2CCCN2C(=O)[C@H](Cc2ccc(O)cc2)NC(=O)[C@H](Cc2c[nH]c3ccc(O)cc23)NC(=O)[C@H](Cc2c[nH]c3ccccc23)NC(=O)[C@H](C)NC(=O)[C@H](Cc2ccc(O)cc2)NC1=O [compound 28] (cyclo(FELYAW[Trp(5-OH)]Y[dP][Ac6c]))", "Units": "µM", "EC50": 1.2}

Exercise: Determine its reported EC50: COc1ccc(C[C@@H]2NC(=O)[C@H](Cc3ccccc3)NC(=O)C3(CCCCC3)NC(=O)[C@H]3CCCN3C(=O)[C@H](Cc3ccc(O)cc3)NC(=O)[C@H](CCC(=O)O)NC(=O)[C@H](Cc3c[nH]c4ccccc34)NC(=O)[C@H](C)NC(=O)[C@H](Cc3ccc(O)cc3)NC(=O)[C@H](CCC(N)=O)NC2=O)cc1 [compound 32] (cyclo(FY(Me)QYAWEY[dP][Ac6c]))
Solution: 0.92

---

Molecular target: human glucagon-like peptide-1 receptor (GLP-1R) (Homo sapiens, UniProt P43220)
Construct: host or cells: CHO chAMPion cells
Assay: Human GLP-1 receptor cell-based assay (flash luminescence, Target Activation phase)
Details: CHO chAMPion cells stably co-expressing human GLP-1R, Photina and cAMP-activated calcium channel; agonist activity; normalization by forskolin at 10 μM; ^a) values from single experiment; read-out: EC50 (μM) Target Activation (TA)
Where a SMILES comes first, the peptide text is derived from it. [ ]: non-standard residue; d: D form. Ac6c = NC1(C(=O)O)CCCCC1
Outcome Measure: EC50

{"Compound": "CC(C)C[C@@H]1NC(=O)[C@H](CCC(N)=O)NC(=O)[C@H](Cc2ccccc2)NC(=O)C2(CCCCC2)NC(=O)[C@H]2CCCN2C(=O)[C@H](Cc2ccc(O)cc2)NC(=O)[C@H](CCC(=O)O)NC(=O)[C@H](Cc2c[nH]c3ccccc23)NC(=O)[C@H](C)NC(=O)[C@H](Cc2ccc(O)cc2)NC1=O [compound 40] (cyclo(FQLYAWEY[dP][Ac6c]))", "Result Value": "1.2 µM"}
{"Compound": "C[C@@H]1NC(=O)[C@H](Cc2ccc(O)cc2)NC(=O)[C@H](CCC(N)=O)NC(=O)[C@H](Cc2ccccc2)NC(=O)[C@H](Cc2ccccc2)NC(=O)C2(CCCCC2)NC(=O)[C@H]2CCCN2C(=O)[C@H](Cc2ccc(O)cc2)NC(=O)[C@H](CCC(=O)O)NC(=O)[C@H](Cc2c[nH]c3ccccc23)NC1=O [Ex. 1] (cyclo(FFQYAWEY[dP][Ac6c]))", "Result Value": "0.09 µM"}

Let us move to another entry and its EC50.
Exercise: Determine its reported EC50: C[C@@H]1NC(=O)[C@H](Cc2ccc(O)cc2)NC(=O)[C@H](CCC(N)=O)NC(=O)[C@H](Cc2c[nH]c3ccccc23)NC(=O)[C@H](Cc2ccccc2)NC(=O)C2(CCCCC2)NC(=O)[C@H]2CCCN2C(=O)[C@H](Cc2c[nH]c3ccccc23)NC(=O)[C@H](CCC(=O)O)NC(=O)[C@H](Cc2c[nH]c3ccccc23)NC1=O [compound 17] (cyclo(FWQYAWEW[dP][Ac6c]))
Solution: 0.6 µM
